SYSTEM NAME: YU2_(gp140) (foldon trimer) (HIV-1 (strain YU2))
PROPERTY: binding result

>>> result("561_02_47 (antibody, V domains shown) V domain 1: QRRLFQSGTEVKRPGASVKISCRADDDPYTDDDTFTKYYTHWIRQAPGQRPEWLGVISPHYARPIYSYKFQDRLTLTRDSSLTAVYFELRGLQPDDTGIYFCARDPFGDMYPHYNYHMDVWGGGTTLIVSA V domain 2: EVVLTQSPAILSVSPGDRVILSCKASEGLSSSDLAWYRFKSGQIPTLVIFGASNRARGTPDRFAGSGSGTDFTLTINRVEPEDFATYYCQRYGGTPITFGGGTTLDKK")
"binds"
>>> result("561_01_54 (antibody, V domains shown) VH: QGRLFQSGTEVKRPGASVKISCRADDDPYTDDDTFTKYYTHWIRQAPGQRPEWLGVISPHFARPIYSYKFQDRLTLTRDSSLTAVYFELRDLQSDDTGIYFCARDPFGDMYPHYNSHMDVWGGGTTVIVSA VL: EVVLTQSPAILSVSPGDRVILSCKASEGLSSSDLAWYRFKSGQIPTLVIFGASNRARGTPDRFSGSGSGTDFTLTINRVEPEDFATYYCQRYGGTPITFGGGTTLDKK")
"binds"
>>> result("561_03_59 (antibody, V domains shown) VH: QRRLFQSGTEVKRPGASVRISCRADDDPYTDDDTFTKYWTHWIRQAPGQRPEWLGVISPHFARPIYSYKFQDRLTLTRDSSLTGVYLELKGLQLDDSGIYFCARDPFGDRAPHYNYHMDVWGGGTAVIVSS VL: EVVLTQSPAILSVSPGDRVSFSCRASEGLDTSQLAWYRFKRGQIPTLVIFATSNRARGTPDRFSGSGSGADFTLTINRVEPEDFATYYCQRYGATPITFGGGTTLDKK")
"binds"
